Give VFT for every item shown.
Test system: Felis catus
Assay overview: Ventricular fribrillation threshold (VFT) after iv administration to anesthetized, acutely infarcted cats at 1 mg/kg
Assay type: functional, Heart
One number for each entry, in mA.

Answered cases to consult:
CN1Cc2ccccc2[C@H](c2ccccc2)N=C1CCc1ccccc1.Cl	82
CCC1=NC(c2ccccc2)c2ccccc2CN1C.Cl (centres undefined)	84
CN1Cc2ccccc2C(c2ccccc2)N=C1CCc1ccc(Cl)cc1.O=C(O)/C=C/C(=O)O (centres undefined)	93

Now for a further compound.
Quick one: VFT for CN1Cc2ccccc2C(c2ccccc2)N=C1CCc1ccccc1.Cl (centres undefined) ?
95

---

Give ED20 for every item shown.
System: Cavia porcellus
Assay overview: Effective dose in vivo for cardiac refractoriness (ERP) using paced guinea pig model
Format: functional
Give bare numbers, in mg/kg.

Answered cases to consult:
CCN(CC)CCNC(=O)c1ccc(NS(C)(=O)=O)cc1 [SEMATILIDE]	1.9
CN1Cc2ccccc2C(C)(c2ccccc2)N=C1CC(O)c1ccccc1 (stereo unspecified)	0.1
CCOC(=O)CC1=NC(C)(c2ccccc2)c2ccccc2CN1C (stereo unspecified)	0.3
CN(C)CC1=NC(C)(c2ccccc2)c2ccccc2CN1C (stereo unspecified)	0.8

Look at each compound and report its ED20.
1. CN1Cc2ccccc2[C@@H](c2ccccc2)N=C1CCc1ccccc1.Cl
2. CCC1=NC(Cc2ccccc2)c2ccccc2CN1C (stereo unspecified)

1: 0.03; 2: 0.2

---

Test system: Cavia porcellus
Assay overview: Effective dose in vivo for cardiac refractoriness (ERP) using paced guinea pig model
Assay type: functional
Give log10 of ED20 for every item shown.
Would you kindly interpret these values as log10 of ED20 expressed in mg/kg?

Answered cases to consult:
O=C(NCC1CCCCN1)c1cc(OCC(F)(F)F)ccc1OCC(F)(F)F (stereo not drawn) [FLECAINIDE]	1.11
CN1Cc2ccccc2C(c2ccccc2)N=C1CCc1ccccc1.Cl (stereo not drawn)	-1.40
CCCCCC1=NC(c2ccccc2)c2ccccc2CN1C.Cl (stereo not drawn)	-1.00

Look at each molecule and report its log10 of ED20.
1. CCN(CC)CC(=O)Nc1c(C)cccc1C [LIDOCAINE]
2. COc1ccc(C2N=C(CCc3ccccc3)N(C)Cc3ccccc32)cc1.Cl (stereo not drawn)
3. CN1CCN(CC2=NC(c3ccccc3)c3ccccc3CN2C)CC1.O=C(O)/C=C/C(=O)O (stereo not drawn)
4. CN1C=NC(c2ccccc2)c2ccccc2C1 (stereo not drawn)
5. CCC1=NC(c2ccccc2)c2ccccc2CN1.Cl (stereo not drawn)
6. CN1Cc2ccccc2C(c2ccccc2)N=C1CN1CCOCC1.O=C(O)/C=C/C(=O)O (stereo not drawn)
7. CCCC1=NC(c2ccccc2)c2ccccc2CN1C.Cl (stereo not drawn)

1. 0.90
2. -1.00
3. -0.40
4. 0.15
5. 0.04
6. -0.60
7. -0.40

Quick one: log10 of ED20 for CN1Cc2ccccc2C(c2ccccc2)N=C1CN1CCCCC1.O=C(O)/C=C/C(=O)O (stereo not drawn) ?
-0.40

---

Assay target: Sodium channel protein type 5 subunit alpha (cardiac sodium channel) (Rattus norvegicus)
Sequence (P15389 whole entry): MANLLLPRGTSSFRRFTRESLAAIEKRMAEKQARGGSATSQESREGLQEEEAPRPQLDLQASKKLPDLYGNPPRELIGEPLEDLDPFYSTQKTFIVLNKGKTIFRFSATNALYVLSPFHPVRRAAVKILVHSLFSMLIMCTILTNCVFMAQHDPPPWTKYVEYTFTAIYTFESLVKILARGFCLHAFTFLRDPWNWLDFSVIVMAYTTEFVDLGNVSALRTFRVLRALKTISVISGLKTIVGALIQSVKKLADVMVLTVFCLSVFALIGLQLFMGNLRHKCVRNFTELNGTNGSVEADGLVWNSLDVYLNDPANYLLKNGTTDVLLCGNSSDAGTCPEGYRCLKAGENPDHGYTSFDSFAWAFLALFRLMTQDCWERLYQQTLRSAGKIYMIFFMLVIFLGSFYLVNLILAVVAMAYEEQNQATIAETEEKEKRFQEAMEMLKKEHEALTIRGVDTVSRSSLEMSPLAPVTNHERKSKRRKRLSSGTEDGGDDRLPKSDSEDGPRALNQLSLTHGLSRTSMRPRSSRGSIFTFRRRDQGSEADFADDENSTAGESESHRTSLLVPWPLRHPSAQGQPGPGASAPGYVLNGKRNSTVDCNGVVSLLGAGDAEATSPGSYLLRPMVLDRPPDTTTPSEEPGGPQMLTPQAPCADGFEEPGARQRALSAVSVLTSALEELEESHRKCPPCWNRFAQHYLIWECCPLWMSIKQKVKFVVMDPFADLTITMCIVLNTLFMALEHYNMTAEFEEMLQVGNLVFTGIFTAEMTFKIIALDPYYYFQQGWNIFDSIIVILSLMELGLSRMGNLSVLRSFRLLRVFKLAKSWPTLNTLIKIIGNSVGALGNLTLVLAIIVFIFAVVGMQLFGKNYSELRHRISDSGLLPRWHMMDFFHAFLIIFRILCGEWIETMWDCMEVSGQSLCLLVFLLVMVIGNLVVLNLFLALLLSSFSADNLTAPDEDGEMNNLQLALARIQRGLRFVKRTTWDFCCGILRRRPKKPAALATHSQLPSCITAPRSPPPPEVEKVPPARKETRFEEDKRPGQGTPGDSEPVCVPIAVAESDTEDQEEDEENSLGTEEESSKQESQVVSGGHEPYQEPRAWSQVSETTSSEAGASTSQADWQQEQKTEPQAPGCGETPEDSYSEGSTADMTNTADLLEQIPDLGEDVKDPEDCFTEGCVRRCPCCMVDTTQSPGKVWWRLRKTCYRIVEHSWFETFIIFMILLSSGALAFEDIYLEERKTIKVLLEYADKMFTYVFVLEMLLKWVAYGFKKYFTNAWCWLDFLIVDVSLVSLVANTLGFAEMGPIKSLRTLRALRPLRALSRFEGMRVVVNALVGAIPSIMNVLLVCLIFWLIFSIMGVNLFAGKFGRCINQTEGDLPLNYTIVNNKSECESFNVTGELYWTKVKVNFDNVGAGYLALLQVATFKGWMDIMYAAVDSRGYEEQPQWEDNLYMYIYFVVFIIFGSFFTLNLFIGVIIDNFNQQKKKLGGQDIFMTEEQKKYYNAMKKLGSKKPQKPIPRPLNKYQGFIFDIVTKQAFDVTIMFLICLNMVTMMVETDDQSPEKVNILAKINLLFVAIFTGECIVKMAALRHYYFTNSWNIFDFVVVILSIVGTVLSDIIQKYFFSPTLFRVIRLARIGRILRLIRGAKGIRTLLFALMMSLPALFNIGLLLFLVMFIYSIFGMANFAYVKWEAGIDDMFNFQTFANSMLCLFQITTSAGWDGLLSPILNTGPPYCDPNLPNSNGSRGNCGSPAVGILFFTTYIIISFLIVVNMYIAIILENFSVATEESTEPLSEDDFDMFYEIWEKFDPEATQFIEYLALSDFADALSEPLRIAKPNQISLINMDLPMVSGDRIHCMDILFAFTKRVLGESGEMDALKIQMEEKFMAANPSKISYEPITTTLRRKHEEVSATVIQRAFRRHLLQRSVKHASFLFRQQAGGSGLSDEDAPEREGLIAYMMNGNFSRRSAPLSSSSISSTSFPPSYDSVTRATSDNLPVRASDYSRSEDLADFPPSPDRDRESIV
Assay overview: in vitro
Assay setup: sodium channel from cardiac myocytes, probe [3H]batrachotoxin ([3H]BTX)
Description: Percentage inhibition of specific binding of [3H]batrachotoxin [3H]BTX) in sodium channel from cardiac myocytes at 10 uM
Entries are sorted into classes by inhibition at 10 µM as follows: bottom bin (below 60%), middle bin (60% to below 90%), top bin (90% or more)

Worked examples, 3 compounds total:
CCC1=NC(c2cccc3ccccc23)c2ccccc2CN1C (centres undefined)	top bin
COc1ccc(C(=O)Nc2ccccc2CCC2CCCCN2C)cc1 (centres undefined) [ENCAINIDE]	bottom bin
CCC1=N[C@@H](c2ccccc2)c2ccccc2CN1C.Cl	bottom bin

Class for O=C(NCC1CCCCN1)c1cc(OCC(F)(F)F)ccc1OCC(F)(F)F (centres undefined) [FLECAINIDE] ?
middle bin

Moving on to the next compound: CCC1=NC(c2ccccc2)c2ccccc2CN1Cc1ccccc1.Cl (centres undefined)
top bin

Moving on to the next compound: CC1=NC(c2ccccc2)c2ccccc2CN1C (centres undefined)
bottom bin
